- ASSAY DETAILS: reversal of MRP1-mediated doxorubicin resistance, pilot screen, H69AR cells, doxorubicin co-treatment (AID 601)
- CONDITION DETAILS: H69AR cells + 2 uM doxorubicin, CellTiter-Glo, 72 h; at 10 µM; active compounds read high
METRIC: differential viability (reversal) (%)
Response body: numeric value in %, unit text excluded.

compound="CC(C)(C)NC(=O)CN(C(=O)CS(=O)CC(=O)Nc1ccc(F)cc1)c1ccc(Cl)cc1 (stereo not given)" metric="differential viability (reversal)" measurement_units=% observed_value=10.3
compound="Cc1ccc(-c2nnc(SCC(=O)N3CC(C)CC(C)C3)o2)cc1C (stereo not given)" metric="differential viability (reversal)" measurement_units=% observed_value=-2.04
compound=CCOC(=O)c1c(C)[nH]c(C(=O)COC(=O)c2ccc(F)c(S(=O)(=O)N3CCOCC3)c2)c1C metric="differential viability (reversal)" measurement_units=% observed_value=11.4
compound=CNCCC=C1c2ccccc2CCc2ccccc21 metric="differential viability (reversal)" measurement_units=% observed_value=4.63

Please examine the following record next.
Qu. For the compound CC(NC(=O)c1ccc2c(c1)OCO2)C(c1cccs1)N1CCOCC1 (stereo not given) , what differential viability (reversal) is on record?
Ans. 13.5

----------
- ASSAY DETAILS: SK-BR-3 cell growth inhibitors, pilot screen, 24 h, human (AID 572);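 further: compound exposure lasted between 18 and 24 h rather than exactly 24 h; 100% = carrier-treated control wells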
- CONDITION DETAILS: SK-BR-3 viability, CellTiter-Glo luminescence, at 10 µM, active compounds read low
The entries below come with measured viability values attached.
Quick reminder: number only, in %, skip the unit.

Solved entries:
molecule="O=C(NCCc1ccccc1)C1CCCN(S(=O)(=O)c2cccs2)C1 (stereo not drawn)" metric=viability measurement_units=% observed_value=89
molecule="CC(=O)OC1CSc2nc3ccccc3n2C1 (stereo not drawn)" metric=viability measurement_units=% observed_value=84
molecule=Cc1nc2ccc(S(=O)(=O)NCC(=O)N3CCCCC3)cc2s1 metric=viability measurement_units=% observed_value=116
molecule=Cc1nn(C)c(C)c1NC(=O)CSc1nc(Cc2ccccc2)nc2c1cnn2-c1ccccc1 metric=viability measurement_units=% observed_value=116
molecule=O=C(NCc1cccs1)c1cc2c(s1)CS(=O)(=O)C2 metric=viability measurement_units=% observed_value=116
molecule="Cn1c(=O)c2c(nc(NCC3CCCO3)n2C)n(C)c1=O (stereo not drawn)" metric=viability measurement_units=% observed_value=102

Qu. Query: viability; subject: Fc1cccc(-c2cc3nc4c(c(N5CCN(c6cnccn6)CC5)n3n2)CCCC4)c1
Ans. 104

Qu. Record request: viability value, item O=c1[nH]c(Nc2ccccc2)cc2ccccc12
Ans. 94.5

Qu. What does the record list as viability for CCCn1c(SCC(=O)NC(=O)NCc2ccco2)n[nH]c1=O ?
Ans. 101

Qu. Return reported viability; argument: Cc1ccc(C(C(=O)NC2CCCCC2)N(C(=O)c2csnn2)C2CCCC2)o1 (stereo not drawn)
Ans. 108

----------
- ASSAY DETAILS: HUVEC growth inhibition – cell-based, human, primary screen (AID 575);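 further: 100% = median of untreated cell wells with 0.1% DMSO on each plate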
- CONDITION DETAILS: HUVEC proliferation, CellTiter-Glo luminescence, 72 h; at 10 µM; active compounds read low
METRIC: viability (%)
Reply with just the number (in %).

A selection of reference data follows.
compound=Cc1noc(C)c1COc1cccc(C(=O)Oc2ccc3c(c2)OCO3)c1 metric=viability measurement_units=% observed_value=88.8
compound=CCc1[nH]nc2c1C1(CCN(C(=O)OCc3ccccc3)CC1)C(C#N)=C(N)O2 metric=viability measurement_units=% observed_value=85.6
compound=O=C(NCc1ccco1)c1cc2c(s1)CSC2 metric=viability measurement_units=% observed_value=82.8
compound=CCCCCn1c(CN(C)Cc2ccccc2)nc2c1c(=O)n(C)c(=O)n2C metric=viability measurement_units=% observed_value=85.8
compound=O=c1nc(N2CCCC2)nc(Nc2ccccc2)[nH]1 metric=viability measurement_units=% observed_value=100

Note: attention shifts to another entry.
Qu. Param item = COc1ccc2nc(S(=O)Cc3ncc(C)c(OC)c3C)[nH]c2c1 (stereo unspecified) ; retrieve measured viability.
Ans. 71.1
